# assay.comment: purified protein yield per well (BCA); higher = higher soluble expression
metric.name: purified protein yield per well (µg)

INSERT INTO measurements (monomer_sequence, metric_name, output_unit, modifier, value_observed) VALUES
  ('ETEYRKGPDPTEATVTAALGPFATASVSVPSSVAGFGGGVIHYPTDTSQGTFGAVAVAPGFLGSSANYAWMGPRLASQGFVVFLINTDSRLDQPPSRGDQLLAALDYLVTSSSVRARIDASRLAVAGHSMGGGGTLEAATDRPGLQAAIPLQPWHTVKSWPNVQVPTLIIGAENDTTAPVASHAEPFYVSIPAAAEKAYLELNNAEHRVGTAGDTTQAKFMIVWLKRYVDNDTRYEQFICPPPPAPSSEIQEYRNTCPG [TEP171]', 'purified protein yield per well', 'µg', '=', 59.3),
  ('FDPPNGAVIMVPGFRGTPPVYDWWGPMLASVGVITMIIETNTPEDSLEARKNAFIAGVEFLSGENDNPASPIRDKLDTSNIAIMGHSLGGGASLRAAEELGSRIKAVIPLTPYCCELGQSFEGNLSGVSVPTLIIASAEDAIAPPAEHARMLYDSVNAATEKVYLEFATGNHMLPSNSGQDLETLGTYVYAFIKENFTDNPRYADFIFGDGEEQFSTYEISQ [TEP136]', 'purified protein yield per well', 'µg', '<', 25),
  ('AEPATIHGPAPTEESITAPTGPFEIDRETVPRSTVEGFGGGTIYYPTDTSEGTFSAVAIAPGYTAGQETLAWLGPRLASQGFVVFTIDTITTSDRPDARAEQLAASLDYLTGSSEVQDRIDPARLGVMGHSMGGGGALQAALDDPGLKAAIPMTPWNTVKDFSGVRTPTMIIGAQNDTVAPVAQHSEPFYESLPDDPGKAYLELAGASHFAPNRDDTTIAKSSIAWLKRFLDDDTRYDRFLCPPPQDPEISDYRATCPY [DP023]', 'purified protein yield per well', 'µg', '=', 33),
  ('FTPSPDPTPDPEPTPEPCQGDCDFTRGPDPSISYLEADNGPYTVRTIDVPSSAGSFNGGTIHYPSGTSGTMGAIAVASGFLAPEGDIIWWGPRLASHGFVVITISTPTFDGEDRRATQLSEALDYVIAQSNSNGSDISGMVDGSRLGAMGWSMGGGGTLQLASGTRLSAAIPLAPWNSGSNNFDQIETPTLIIACENDGTAAVGTHASPFYHSIPASTDKAFLEINGGGHSCANGGGTNGGLLGKYGVSWMKLFMDDDSRYSQFLCGPNHAANSAISEYRDTCNY [DP049]', 'purified protein yield per well', 'µg', '<', 25),
  ('CDSILFQSIASPGPYNVLSIDESDGIRNGQDYNGATIFYPEGNLYNLPSIVFVPGYSNTQFTIQNWGLFLASYGIVTMTIGTNTLIDSHIQRKDALLDALITIKQENVRSSSPLYNSLDTLKLALGGFSKGGGGAQLAASIGQNIKAVIALYPWLENISAVDLNHDVPVLIVSGNLDIIAPPSLHADVHYMYTPETTKKLKYEIAFATHDPLIGPNAGFGEVGKKTLSWLQTFLLGDSCFCPYLLDTPSNASIYMSNLNCTEISTNTYNLESNQEKKILKIIDIFGREVRPKKNMILFYIYNDQSVKKIIIK [TEP139]', 'purified protein yield per well', 'µg', '<', 25);

* * *

# assay.comment: PET hydrolysis, aromatic products released after 48 h (umol product/mg enzyme); higher = more PET depolymerization activity
# protocol.conditions: substrate: cryPow; 60 °C; pH 5.5
# PET hydrolysis per record follows
metric.name: PET hydrolysis

INSERT INTO assay_data (monomer_sequence, value_observed) VALUES
  ('AAGYERGPNPTSSALEATRGPFSVASTNVSSLSASGFGGGTIYYPTDTSQGTFGGVVIAPGYTASKSSMAWLAERLASHGFVVFNIDTITRSDQPDSRGRQILAAADHLAEESSSTVRRRLDASRIGVMGHSMGGGGTLAAADSRPSLKAAVPLTPWHLDKSWGNVRVPTMIIGAENDTIAAVGSHSEPFYNSLSAAPEKAYLELNGASHFAPNSDNDTIAKYGISWMKRFVDEDTRYDQFLCPAPGRSTTIEEYRSSCPHS [DP086]', '< 3'),
  ('ADNPYERGPAPTEASVEAPRGPYAVSETTVSPLAVTGFGGGTVYYPTSTADGTFGAIAVSPGYTGTQSSIAWLGPRLASQGFVVFTIDTLTTLDQPDSRGRQLLAALDYLTQKSSVRGRIDSTRLGVMGHSMGGGGSLEAAKSRPSLQAAIPLTPWNLDKTWPEVATPTLIFGADGDTIAPVATHAEPFYTSLPASLDRAYLELNGATHFTPNTSNTTIAKYSIAWLKRFIDDDTRYEQFLCPLPRPGLTIEEYRGNCPHTS [TEP117]', '< 3'),
  ('ADNPYQRGPNPTQASIAANRGTFATAETSVGGGNGFGGAKIYYPTDTSQGTFGAIAVSPGYTATWAAEGAWMGHWLASFGFVVIGIDTINRNDREYARGTQLLAALDYLTQRSSVRTRVDPNRLAVMGHSMGGGGTISAALRRPTLKAAIGLAPYYPSQSTSGMQVPTMLLAGQNDGTSTPASIVTFYNDIPASTEKVYLELTGAGHGFPTSNNSVVTRKVIPWMKIFIDQDTRYTQFLCPLQDLTGIRTYRNSCPLLPNDPGTTFSLAGSASGKCADVPGRVQTNGTGLIIWTCNNAGNQQWTQTPAGELRIYGNTKCMDANASGQGARVTINTCNGGNSQKWTVNTNGTVTNAASGRCLDAGGTADNSPVVVNTCNAASGQTWTKRP [DP047]', '< 3'),
  ('AANPYERGPAPTAASIAATTGPFAVASVSVPRGNGFGGGVIYYPTSTSQGTFGGVAISPGLNGTWAGIAWLGPRLASQGFVIFGIETNNLNDSPASRGTQLLAALDFLTRSSSVRTRVDASRLAVAGHSMGGGGALSAALQRPSLQAAIGNAPHLPSGSLATDRVPTLIYAMQNDTLVTPSRLTSLYNSMPATTERAYIEVAGAGHNYIGQPSTTLARTMIPWLKIFVDNDARYSQFLCPLSNQSGISQYRNSCPLISTTTLSTGVDSTSGLAVR [ESM157]', 3),
  ('AENPYQRGPDPTLAALAASAGPYPIMETVVGSAEVTNFGGASIYYPAGTADGTFGGVAVTPGFLGPRSTMEWVARRVASHGFVVINIDTLERNDTPPLRARQMLAALDYLTGASAVRDRVDPTRLAVMGHSMGGGGSLQASRQRPQLKAAVPLTPWSNDKDFSADVVPTLIIGAELDDTAPVAEHAEPFFESIAAARKAYLELNDAEHRAPIRTNETIGTYSVAWLKRFVDDDTRYEQFLCPPPAPSAAIEEFRGTCPSS [TEP106]', '< 3');

* * *

# PET hydrolysis per record follows
# assay.comment: PET hydrolysis, aromatic products released after 48 h (umol product/mg enzyme); higher = more PET depolymerization activity
# protocol.conditions: substrate: cryPow; 40 °C; pH 7.5
metric.name: PET hydrolysis

INSERT INTO results (monomer_sequence, value_observed) VALUES
  ('DSPYERGPDPTTSSIEASSGPFDVDEDSVSSWSVSGFGGGTVYYPEDDGQTYGGVVIAPGYTESSSAMAWLGEYLASHGFVAFNIDTNTRYDQPDSRGRQIEAALDYLAEDSDVSDLVDPNRLAAMGHSMGGGGTLAAAEDRPELKAAIPLTPWHTDKTWGGVTVPTMIIGAENDTIAPNSSHSIPFYNSLSTSTERAYVELDGEGHLVTSSRNTELASNSVSWLKVFVDEDDRYEQFLCPAPSTGWGSPYSDYRDSCPYI [DP033]', '< 3'),
  ('LNPYQRGPNPTDAILEASSGPYATSSISVPSIVSGFGGGRIYYPTTTADGTFGGIAISPGFTATWSSLSWLGPRLASHGFVVIGIETNTIYDQPTSRGQQLLAALDYLVNTSSVRTRVDSSRLAVAGHSMGGGGTLWAANSRPSLQAAIPLAPWNTDKSWSGVRVPTLIVGGQSDTVAPVATHSIPFYTSIPAASEKAYLELRSASHFFPQTVNTTVAVSMVSWLKRYVDDDTRYDPWLCPGPSGLSVSDYRDTCPA [TEP178]', 29),
  ('QYQKGPDPTVSALERTGSFATRTTTVSRTSASGFGGGTIYYPTASGSYGAIAISPGFTAYQSSISWMGTRLASHGFVVITIDTITTSDQPDSRGRQLKAALDKVVSLSRSSSSPIYNKVDTTRLAVAGHSMGGGGTLAAARDYPSLKAAVPLAPWHTTKSWSRVTVPTLIIGGSTDTIASVGLHSIPFYTSLPSSTNKAYMELSGEGHFFPQTSSNYPLVGRYMISWFKRFVDGDSRYSPFLCGAQHQADLGLFSDISDYRENCPY [ESM169]', 57),
  ('APNAAIAAAPRVAPAANPYERGPAPTEESVKAEKGPFDIAQMPVPGGAGVFGGGTIWYPKDEAGPFGAVVVSPGFMTLEPLIQWYGRTLASHGFVVMTMATITPIDPPFSRGDELRSALDYLVTKSTVKDKIDPTRTALMGHSMGGGGTLDAASKLPDLKAAIPLAPWNLDYAPPAKIKAPTLIIGADNDPIAPTAAFADPFYAALTTQNRAYLKLKNAGHTFSFLGYNPTITKYTVSWLKRFVDNDTRYDQFLCPIPAASDTVAAYQGTCPLT [DP091]', '< 3'),
  ('QDNSQGRYRPEGRQIGVAAGREFGERIYEVRTYETNPGIAEFADVMVFYPLTLSFDRPNGAIAFSPGFRAAADNYEWWGPALASLGYNVFILNTNEPTDDLDARADALAALVDFIKAENANPDSPVANKIDEEKIALMGHSMGGGAALAAADRLGDAVGAVIPLALYCCNPGGSFEGDYGSLSAAALVIASAEDTVAPPEAHARLLYDSLGSENKIYMEFAAGDHMFPANGGPELATMGRFTLAFLKAYLDGVAGLEQHVTSPSDEYAERFSTYLAP [TEP035]', '< 3'),
  ('DPPTHAKGVKPGPSELAAPSASDLAADGPHAVTTTAISGSVTPGFGAATIYAPASGSGYGGVAISPGYMSTQSAVSWLGPRLASHGFVVITFDTTTIWDNPDSRGVQLLAALDYLTGSSPARGQVDASRLAVMGHSMGGGGSLAAAKSRPSIDAAIPLTPWHTDKTWPEVSTPTLIVGAENDGIAPVASHAEPFYESLATSTDRAYLELNAATHSAPNSENAQISTYSLAWLKRFVDGDTSVDPILCPGPAASSTVEEYRSSCPF [DP019]', '< 3'),
  ('ASPYERGPNPTTAILEASSGPYSVSSVSVSSLVTGFGGGRIYYPTTTADGTFGGIAISPGFTARWSSLEWLGPRIASHGFVVIGIETNSIYDQPTSRGQQLLAALDYLVNSSSARTRVDRNRLAVAGHSMGGGGTLYAANARPSLQAAVPIAPWNTDKTWGGVQVPTMIIGGESDSVAPVATHAIPFYTSIPASSEKAYLELNNASHFFPQTVNTTMAKSMVSWLKRYVDDDTRYDPWLCPAPSGLSISDYRDTCPA [DP084]', 9),
  ('ATTAAAPAAAVRADSPYQRGPAPTEASVTAARGPFAIAQVTVPAGSGTGFNKGTIYYPTDTGQGTFGGVAVMPGFTSPQSVIQWLGPRLASQGFLVFTLDSLSLVDFPTARSQQLLAALDYLATRSTVRTRLDPNRLAVMGHSMGGGASLWAAQNRPSLKASVPLAPWETDTTWQGVRVPTMIIGGQADTVAPPATMAIPDYTSMTSAPEKAYLELRNGGHGAPATESPTVAKYALSWLKRFVDLDTRYDQFLCPAPAPTTAISQYRDTCPNG [DP058]', '< 3'),
  ('ADNPYERGPAPTTSSIEASRGPFATASTTVSSLVSGFGGGTIYYPTSTAEGTFGAVAISPGYTGTQSSIAWLGPRIASQGFVVITIDTNTIYDQPDSRASQLLAALDYLTQSSSVRTRIDATRLGVMGHSMGGGGTLRAAESRPALQAAIPLTAWHTDKTWGNVRVPTLVIGAENDSIAPVATHSEPFYTSLPSTLDKAYLELNAADHFAPNSSNTTIAKYSISWLKRFIDNDTRYEQFLCPPPSRSLLIEEYRDTCPHS [TEP108]', '< 3'),
  ('ATYERGPAPTAQSIVADGPFSYATVAVPTQSSFGGGTIYYPTDTNQGTFGAVAVIPGFVGSLDNVAWIGSRLASHGFVVFTVATTNPFAFPGDRAAQLQAALTYLTQSSSVRDRVDPNRLAVAGHSMGGGGALEAVRNNPALKAAVALQPWDFGQNFSAIAVPSMIVGAQNDQVATVTSHSEPFYDQIPAGAEKAYLELAGAGHDAGQSVSNATQAGSMLSWLKRYVDEDTRYEQFLCPAPSGPSVAEYRDTCPA [DP045]', '< 3'),
  ('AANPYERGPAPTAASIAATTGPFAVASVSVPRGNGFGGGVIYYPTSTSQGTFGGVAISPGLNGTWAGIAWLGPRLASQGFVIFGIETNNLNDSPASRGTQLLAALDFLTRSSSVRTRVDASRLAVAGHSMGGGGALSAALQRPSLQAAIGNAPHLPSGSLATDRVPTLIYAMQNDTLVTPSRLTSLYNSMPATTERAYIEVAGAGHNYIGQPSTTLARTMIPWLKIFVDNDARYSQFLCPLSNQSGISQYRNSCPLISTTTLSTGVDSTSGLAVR [ESM157]', 69.5);
